experimental-details: Clearance in ICR mouse at 10 mg/kg, iv or po measured up to 1440 mins by LC-MS/MS analysis
Format: ADME, organism-based
condition-description: in vivo
test-readout: clearance (mL/min/kg)

[P] Cl.O=C1Nc2ccc(F)cc2/C1=C1/Nc2ccc(F)cc2/C1=N\OCCN1CCNCC1
[Q] Cl.O=C1Nc2ccc(F)cc2/C1=C1/Nc2ccc(F)cc2/C1=N\OCCNC1CCNCC1
Please state the entry with greater clearance among P and Q . Return value: the label identifying the chosen record. Q
(Q: 231 mL/min/kg, P: 28.1 mL/min/kg)

[P] Cl.O=C1Nc2ccc([N+](=O)[O-])cc2/C1=C1/Nc2ccccc2/C1=N\OCCN1CCNCC1
[Q] Cl.O=C1Nc2ccc([N+](=O)[O-])cc2/C1=C1/Nc2ccc(O)cc2/C1=N\OCCN1CCNCC1
For the two items P and Q , which reports the higher clearance value? Write down the label of the entry you select. P
